Tested on: OVCAR-3 ovarian
procedure-summary: NCI-60 one-dose screen, 48 h (100 = growth as untreated, 0 = no growth, -100 = all killed)
condition-set: 10 µM unless noted
This is part of a sample that, as a whole, favours compounds with a hit. Of some 83,000 tested, about 20% had one in any assay.
measurement-kind: growth (%)
// units = %; emit number, no label

* O=Cc1ccc(F)cc1 | 111
* CCOC(=O)CNC(=O)Sc1ccc(C(C)(C)C)cc1 | 104
* c1ccc2[nH]c(Cc3nc4ccccc4[nH]3)nc2c1 | 122
* Nc1cccc2cccc(O)c12 | 87.1
* Clc1ccc(-c2noc(/C=C\c3ccccc3)n2)cc1 | 102
* Cn1c2ccccc2c2nnc(NCCCCO)nc21 | 88.6

**Q:** Form entry - test system: OVCAR-3 ovarian; read-out: growth; molecule: `Cc1ccc(Cc2ccc(C)cc2)cc1`
**A:** 116

**Q:** Form entry - test system: OVCAR-3 ovarian; read-out: growth; molecule: CCC(C)c1c(N)n(S(=O)(=O)c2ccc(C)cc2)oc1=O (configuration not stated)
**A:** 118

**Q:** Form entry - test system: OVCAR-3 ovarian; read-out: growth; molecule: CC(C)(C)[Si](C)(C)OCC1OC(n2cnc3c(N)ncnc32)CC1OS(C)(=O)=O (configuration not stated)
**A:** 104

**Q:** Form entry - test system: OVCAR-3 ovarian; read-out: growth; molecule: `CC(=O)C[n+]1ccc(C)cc1Sc1ccccc1C`
**A:** 102

**Q:** Form entry - test system: OVCAR-3 ovarian; read-out: growth; molecule: `O=C(Nc1cccc(Cl)c1)c1ccc(Cl)cc1Cl`
**A:** 98

**Q:** Form entry - test system: OVCAR-3 ovarian; read-out: growth; molecule: `CC(=O)c1cccc(N(C)S(=O)(=O)c2ccc(C)cc2)c1`
**A:** 105

**Q:** Form entry - test system: OVCAR-3 ovarian; read-out: growth; molecule: `Cc1ccc(NC(=O)c2ccccc2Cl)cc1`
**A:** 122

**Q:** Form entry - test system: OVCAR-3 ovarian; read-out: growth; molecule: `Cn1c(=O)[nH]c2ccccc2c1=O`
**A:** 112

**Q:** Form entry - test system: OVCAR-3 ovarian; read-out: growth; molecule: `COc1cc(CC#N)c([N+](=O)[O-])cc1OC`
**A:** 109

**Q:** Form entry - test system: OVCAR-3 ovarian; read-out: growth; molecule: `COc1ccc2c(c1)Nc1ccccc1S2`
**A:** 113

**Q:** Form entry - test system: OVCAR-3 ovarian; read-out: growth; molecule: `CC(=O)c1ccc(C)cc1`
**A:** 111

**Q:** Form entry - test system: OVCAR-3 ovarian; read-out: growth; molecule: `O=[N+]([O-])c1c(Cl)ncnc1Cl`
**A:** 105

====

System: SK-MEL-2 melanoma
procedure-summary: NCI-60 one-dose screen, 48 h (100 = growth as untreated, 0 = no growth, -100 = all killed)
condition-set: 10 µM unless noted
About 83,000 compounds went through this panel and 20% of them were active in at least one assay; those are over-represented in the sample as a whole.
measurement-kind: growth (%)
// units = %; emit number, no label

The cases that follow already have their growth on record.
* Nc1ccc2c(c1)Cc1cc(N)c(N)cc1-2 | 88.8
* O=S(Cc1ccccc1)/C(=C/NC(=S)Nc1ccccc1)c1ccccc1 (configuration not stated) | 104
* CCN1CCCC(N2c3ccccc3Sc3ccccc32)C1 (configuration not stated) | 97.4
* COC(CCCl)c1ccc(Cl)cc1 (configuration not stated) | 83.5
* CC1(C)CC(=O)C=C(N)C1 | 98.4
* CCOP(=O)(OCC)/C(=C\N1C(=O)CC(=O)NC1=S)C(=O)OC | 118

Read the next record carefully.
**Q:** Dear colleague, I am looking for the recorded growth of the following compound: `O=C1Nc2ccccc2/C1=C\c1ccccc1O`
**A:** 107
